Recorded refractive index values for a group of molecules are listed next.
- Assay name: refractive index (Na D-line) (dimensionless)
- Experimental conditions: 328.15 K; 102.2 kPa; Liquid; Standard Abbe refractometry
Output: the number by itself.

Known results for molecules:
- Molecule: "C[Si]1(CCC(F)(F)F)O[Si](C)(CCC(F)(F)F)O[Si](C)(CCC(F)(F)F)O1 (stereo not given)"
  refractive index: 1.35215
- Molecule: "C=C[Si]1(C)O[Si](C)(C=C)O[Si](C)(C=C)O[Si](C)(C=C)O1 (stereo not given) [2,4,6,8-tetramethyl-2,4,6,8-tetravinylcycloterasiloxane]"
  refractive index: 1.41802
- Molecule: "C=C[Si](C)(C)O[Si](C)(C)C=C [1,3-diethenyl-1,1,3,3-tetramethyldisiloxane]"
  refractive index: 1.39378

Consider now this further molecule.
Lookup: Using the record for C[Si]1(C)O[Si](C)(C)O[Si](C)(C)O[Si](C)(C)O1 [octamethylcyclotetrasiloxane] , report its refractive index.
Found: 1.37916
